# ASSAY: Single-dose intravenous pharmacokinetics in rats
# Format: in vivo, rat
# COND: female; Sprague-Dawley rat, F, n=6, 75 mg/kg single IV; plasma LC/MS/MS, non-compartmental; one time point per animal; read-out: V
MEASUREMENT LABEL: Vd (L/kg)
Report the figure in L/kg without appending any unit label.

Can you share its Vd? I mean this compound: CC(=O)N[C@H]1CSSC[C@@H](C(N)=O)NC(=O)[C@H](CC(=O)O)NC(=O)[C@@H]2CCCN2C(=O)CNC(=O)[C@H](CCCCN)NC(=O)[C@H](CC(=O)O)NC(=O)CNC(=O)[C@H](CCCNC(=N)N)NC1=O [CEND-1]
0.254

---

# ASSAY: Single-dose intravenous pharmacokinetics in dogs
# Format: in vivo, dog
# COND: male; Beagle dog, M, n=5, 75 mg/kg single IV; plasma LC/MS/MS, non-compartmental; mean (SD); read-out: Cl_obs (converted)
MEASUREMENT LABEL: clearance
Write the numeric value and append its unit.

Reported clearance, compound CC(=O)N[C@H]1CSSC[C@@H](C(N)=O)NC(=O)[C@H](CC(=O)O)NC(=O)[C@@H]2CCCN2C(=O)CNC(=O)[C@H](CCCCN)NC(=O)[C@H](CC(=O)O)NC(=O)CNC(=O)[C@H](CCCNC(=N)N)NC1=O : ____
3.83 mL/min/kg

---

# ASSAY: Clinical pharmacokinetics in patients with metastatic pancreatic ductal adenocarcinoma
# Format: in vivo, human
# COND: human, plasma, iv, 3.2 mg/kg, pancreatic cancer patients, 3.2 mg/kg IV, plasma; Run-In (monotherapy); mean, N=7; read-out: Vz
MEASUREMENT LABEL: Vd (L/kg)
Value expressed in L/kg; do not type the unit.

May I ask what Vd has been recorded for CC(=O)N[C@H]1CSSC[C@@H](C(N)=O)NC(=O)[C@H](CC(=O)O)NC(=O)[C@@H]2CCCN2C(=O)CNC(=O)[C@H](CCCCN)NC(=O)[C@H](CC(=O)O)NC(=O)CNC(=O)[C@H](CCCNC(=N)N)NC1=O [CEND-1] ?
0.269

---

# ASSAY: Clinical pharmacokinetics in patients with metastatic pancreatic ductal adenocarcinoma
# Format: in vivo, human
# COND: human, plasma, iv; patients, run-in day 1, 1.6 and 3.2 mg/kg; read-out: time of peak plasma concentration (first post-dose PK sampling timepoint) (converted)
MEASUREMENT LABEL: Tmax
Include the unit after the number when you answer.

Sample CC(=O)N[C@H]1CSSC[C@@H](C(N)=O)NC(=O)[C@H](CC(=O)O)NC(=O)[C@@H]2CCCN2C(=O)CNC(=O)[C@H](CCCCN)NC(=O)[C@H](CC(=O)O)NC(=O)CNC(=O)[C@H](CCCNC(=N)N)NC1=O — what was its Tmax?
3 min

---

# ASSAY: Single-dose intravenous pharmacokinetics in dogs
# Type: in vivo, dog
# COND: male; Beagle dog, M, n=3, 1 mg/kg single IV; plasma LC/MS/MS, non-compartmental; mean (SD); read-out: t1/2 (converted)
MEASUREMENT LABEL: half-life (min)
Give your result in min as a bare value.

Return reported half-life; argument: CC(=O)N[C@H]1CSSC[C@@H](C(N)=O)NC(=O)[C@H](CC(=O)O)NC(=O)[C@@H]2CCCN2C(=O)CNC(=O)[C@H](CCCCN)NC(=O)[C@H](CC(=O)O)NC(=O)CNC(=O)[C@H](CCCNC(=N)N)NC1=O [CEND-1]
39.9
